Test system: CYP450
experiment: Drug metabolism in human liver microsomes assessed as CYP450-mediated catecholization after 10 to 30 mins by HPLC analysis in presence of NADPH
Type: ADME
measured parameter: Km (µM)
Express it in µM; write the number only.

compound | experimental target | obs value
c1cc2c(cc1[C@H]1OC[C@H]3[C@@H]1CO[C@@H]3c1ccc3c(c1)OCO3)OCO2 [SESAMIN] | CYP450 | 7.7
Oc1ccc([C@H]2OC[C@H]3[C@@H]2CO[C@H]3c2ccc3c(c2)OCO3)cc1O | CYP450 | 4.1
Oc1ccc([C@@H]2OC[C@H]3[C@@H]2CO[C@@H]3c2ccc3c(c2)OCO3)cc1O | CYP450 | 1.8
Oc1ccc([C@H]2OC[C@H]3[C@@H]2CO[C@@H]3c2ccc3c(c2)OCO3)cc1O | CYP450 | 18.8

Shift focus to the following entry.
Ask: Endpoint output: Km of c1cc2c(cc1[C@H]1OC[C@H]3[C@@H]1CO[C@H]3c1ccc3c(c1)OCO3)OCO2 [ASARININ] . Value?
Result: 13

----------
experimental target: CYP2C9 (Homo sapiens, UniProt P11712)
Sequence (P11712 whole entry): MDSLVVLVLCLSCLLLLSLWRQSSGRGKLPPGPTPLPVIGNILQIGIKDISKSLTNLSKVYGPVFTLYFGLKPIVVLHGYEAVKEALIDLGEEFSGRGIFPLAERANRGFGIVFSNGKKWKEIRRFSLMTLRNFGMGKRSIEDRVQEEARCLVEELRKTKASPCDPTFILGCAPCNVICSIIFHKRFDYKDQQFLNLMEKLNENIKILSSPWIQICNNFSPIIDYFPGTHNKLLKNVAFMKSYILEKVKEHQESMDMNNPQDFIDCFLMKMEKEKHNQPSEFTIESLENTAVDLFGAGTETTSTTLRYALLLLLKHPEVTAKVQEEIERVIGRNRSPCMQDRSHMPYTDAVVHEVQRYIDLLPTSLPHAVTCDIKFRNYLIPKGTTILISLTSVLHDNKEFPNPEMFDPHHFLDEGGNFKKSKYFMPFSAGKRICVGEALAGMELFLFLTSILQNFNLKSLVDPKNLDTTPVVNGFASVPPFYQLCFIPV
experiment: Ratio of Kinact to Ki(app) for mechanism-based inhibition of recombinant human CYP2C9 expressed in microsomes isolated from Saccharomyces cerevisiae AH22 cells assessed as diclofenac 4'-hydroxylation preincubated for 5 to 10 mins followed by substrate addition measured after 15 mins by HPLC analysis
Format: ADME, cell-based
setup conditions: probe diclofenac (4'-hydroxylation)
measured parameter: kinact/KI at 0.25 h

compound | obs value
c1cc2c(cc1[C@H]1OC[C@H]3[C@@H]1CO[C@H]3c1ccc3c(c1)OCO3)OCO2 [ASARININ] | 417 M⁻¹ s⁻¹

Shift focus to the following entry.
Ask: Endpoint output: kinact/KI at 0.25 h of c1cc2c(cc1[C@H]1OC[C@H]3[C@@H]1CO[C@@H]3c1ccc3c(c1)OCO3)OCO2 [SESAMIN] . Value?
Result: 2330 M⁻¹ s⁻¹

----------
Test system: CYP450
experiment: Drug metabolism in Sprague-Dawley rat liver microsomes assessed as CYP450-mediated catecholization after 10 to 30 mins by HPLC analysis in presence of NADPH
Format: ADME
Threshold rule: Km greater than or equal to 5 µM is t; below that, f.

These recorded examples may help you get a feel for the data.
query smiles | experimental target | answer label
Oc1ccc([C@H]2OC[C@H]3[C@@H]2CO[C@H]3c2ccc3c(c2)OCO3)cc1O | CYP450 | f
Oc1ccc([C@H]2OC[C@H]3[C@@H]2CO[C@@H]3c2ccc3c(c2)OCO3)cc1O | CYP450 | t
Oc1ccc([C@@H]2OC[C@H]3[C@@H]2CO[C@@H]3c2ccc3c(c2)OCO3)cc1O | CYP450 | t
c1cc2c(cc1[C@H]1OC[C@H]3[C@@H]1CO[C@H]3c1ccc3c(c1)OCO3)OCO2 | CYP450 | t

Next up:
Ask: Can `c1cc2c(cc1[C@H]1OC[C@H]3[C@@H]1CO[C@@H]3c1ccc3c(c1)OCO3)OCO2` be said to have Km at or above 5 µM?
Result: t

----------
experimental target: CYP2C9 (Homo sapiens)
experiment: Mechanism-based inhibition of recombinant human CYP2C9 expressed in microsomes isolated from Saccharomyces cerevisiae AH22 cells assessed as diclofenac 4'-hydroxylation preincubated for 5 to 10 mins followed by substrate addition measured after 15 mins by HPLC analysis
Type: ADME, cell-based
setup conditions: human, probe diclofenac (4'-hydroxylation)
measured parameter: kinact at 0.25 h (s⁻¹)
Express it in s⁻¹; write the number only.

Ask: Endpoint output: kinact at 0.25 h of `c1cc2c(cc1[C@H]1OC[C@H]3[C@@H]1CO[C@H]3c1ccc3c(c1)OCO3)OCO2` . Value?
Result: 0.00283

----------
experiment: Drug metabolism in human liver microsomes assessed as CYP450-mediated catecholization per mg of protein after 10 to 30 mins by HPLC analysis in presence of NADPH
Type: ADME
Threshold rule: Vmax greater than or equal to 0.4 nmol/min/mg is class 1; below that, class 0.

These recorded examples may help you get a feel for the data.
query smiles | answer label
c1cc2c(cc1[C@H]1OC[C@H]3[C@@H]1CO[C@@H]3c1ccc3c(c1)OCO3)OCO2 | class 1
Oc1ccc([C@H]2OC[C@H]3[C@@H]2CO[C@H]3c2ccc3c(c2)OCO3)cc1O | class 0
Oc1ccc([C@H]2OC[C@H]3[C@@H]2CO[C@@H]3c2ccc3c(c2)OCO3)cc1O | class 1

Next up:
Ask: Can `Oc1ccc([C@@H]2OC[C@H]3[C@@H]2CO[C@@H]3c2ccc3c(c2)OCO3)cc1O` be said to have Vmax at or above 0.4 nmol/min/mg?
Result: class 0

----------
Documented Km across a set of compounds
System: UGT
experiment: Drug metabolism in human liver microsomes assessed as UGT-mediated glucuronidation after 10 to 30 mins by HPLC analysis in presence of UDP-GlcUA
Format: ADME
Express it in µM; write the number only.

query smiles | Km / µM
Oc1ccc([C@H]2OC[C@H]3[C@@H]2CO[C@@H]3c2ccc3c(c2)OCO3)cc1O | 18

Ask: Endpoint output: Km of `Oc1ccc([C@@H]2OC[C@H]3[C@@H]2CO[C@@H]3c2ccc3c(c2)OCO3)cc1O` . Value?
Result: 8.6

Ask: Endpoint output: Km of `Oc1ccc([C@H]2OC[C@H]3[C@@H]2CO[C@H]3c2ccc3c(c2)OCO3)cc1O` . Value?
Result: 9.9

----------
experiment: Drug metabolism in Sprague-Dawley rat liver microsomes assessed as CYP450-mediated catecholization per mg of protein after 10 to 30 mins by HPLC analysis in presence of NADPH
Format: ADME
Documented Vmax across a set of compounds
The reply should read as a number followed by its unit.

For orientation, consider the following solved cases.
query smiles | Vmax
Oc1ccc([C@H]2OC[C@H]3[C@@H]2CO[C@H]3c2ccc3c(c2)OCO3)cc1O | 1.9 nmol/min/mg
c1cc2c(cc1[C@H]1OC[C@H]3[C@@H]1CO[C@H]3c1ccc3c(c1)OCO3)OCO2 | 6.3 nmol/min/mg
c1cc2c(cc1[C@H]1OC[C@H]3[C@@H]1CO[C@@H]3c1ccc3c(c1)OCO3)OCO2 | 4.8 nmol/min/mg

Shift focus to the following entry.
Ask: Endpoint output: Vmax of `Oc1ccc([C@H]2OC[C@H]3[C@@H]2CO[C@@H]3c2ccc3c(c2)OCO3)cc1O` . Value?
Result: 3.7 nmol/min/mg

----------
Documented Vmax across a set of compounds
experiment: Drug metabolism in human liver microsomes assessed as UGT-mediated glucuronidation per mg of protein after 10 to 30 mins by HPLC analysis in presence of UDP-GlcUA
Type: ADME
Express it in nmol/min/mg; write the number only.

For orientation, consider the following solved cases.
query smiles | obs value
Oc1ccc([C@H]2OC[C@H]3[C@@H]2CO[C@@H]3c2ccc3c(c2)OCO3)cc1O | 6
Oc1ccc([C@@H]2OC[C@H]3[C@@H]2CO[C@@H]3c2ccc3c(c2)OCO3)cc1O | 0.68

Ask: Endpoint output: Vmax of `Oc1ccc([C@H]2OC[C@H]3[C@@H]2CO[C@H]3c2ccc3c(c2)OCO3)cc1O` . Value?
Result: 0.55

----------
Documented Km across a set of compounds
System: UGT
experiment: Drug metabolism in Sprague-Dawley rat liver microsomes assessed as UGT-mediated glucuronidation after 10 to 30 mins by HPLC analysis in presence of UDP-GlcUA
Type: ADME
Express it in µM; write the number only.

query smiles | experimental target | measured parameter | quantity unit | obs value
Oc1ccc([C@@H]2OC[C@H]3[C@@H]2CO[C@@H]3c2ccc3c(c2)OCO3)cc1O | UGT | Km | µM | 9.9
Oc1ccc([C@H]2OC[C@H]3[C@@H]2CO[C@@H]3c2ccc3c(c2)OCO3)cc1O | UGT | Km | µM | 20.3

Shift focus to the following entry.
Ask: Endpoint output: Km of `Oc1ccc([C@H]2OC[C@H]3[C@@H]2CO[C@H]3c2ccc3c(c2)OCO3)cc1O` . Value?
Result: 16.8

Provenance of the data: ChEMBL document CHEMBL3525932
